# TARGET_OR_SYSTEM: T1, Homo sapiens factor Bb protein (human, UniProt P00751 260-764)
# T1 construct: Bought from CompTech (A155); also called complement factor Bb; human factor Bb
# T1 sequence (P00751 260-764 limits assumed): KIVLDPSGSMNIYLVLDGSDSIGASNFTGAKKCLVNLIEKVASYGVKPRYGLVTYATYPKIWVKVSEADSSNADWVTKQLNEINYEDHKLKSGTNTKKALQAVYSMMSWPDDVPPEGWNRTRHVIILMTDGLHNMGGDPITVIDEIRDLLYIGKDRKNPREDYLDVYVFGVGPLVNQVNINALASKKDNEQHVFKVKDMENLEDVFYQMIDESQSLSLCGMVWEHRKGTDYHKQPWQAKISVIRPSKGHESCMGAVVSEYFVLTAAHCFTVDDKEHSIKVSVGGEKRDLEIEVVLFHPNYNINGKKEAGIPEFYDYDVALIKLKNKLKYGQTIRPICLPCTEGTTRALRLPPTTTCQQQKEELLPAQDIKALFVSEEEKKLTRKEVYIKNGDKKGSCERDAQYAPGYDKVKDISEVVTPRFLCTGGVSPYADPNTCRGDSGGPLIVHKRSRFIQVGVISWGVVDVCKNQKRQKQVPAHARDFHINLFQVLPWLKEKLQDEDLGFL
# TEST_NAME: SPR single cycle kinetics, IgG on Protein A chip, factor Bb analyte
QUANTITY_MEASURED: kon (M⁻¹ s⁻¹)
Could you give me the number in M⁻¹ s⁻¹? Just the number is fine.

# BINDER, UNITS, kon
data = [
    ("VH0/Vκ0 (Chimeric) (antibody, V domains shown, also called chimeric antibody) VH: EVQLVESGGALVKPGGSLKLSCAASGFTFSNYAMSWVRQTPEKRLEWVATISNRGSYTYYPDSVKGRFTISRDNAKNTLYLQMSSLRSEDTALYYCARERPMDYWGQGTSVTVSS VL: DIVMTQSHKFMSTSVGDRVSITCKASQDVGTAVAWYQQKPGQSPKLLIYWASTRHTGVPDRFTGSGSGTDFTLTITNVQSEDLAVYFCHQHSSNPLTFGAGTKLELK", "M⁻¹ s⁻¹", 535000),
    ("VH5/Vκ0 (antibody, V domains shown, Control antibody of the redesign round; cloned into the appropriate expression vector (IgG4v1 and kappa were used in the first round), HEK EBNA supernatant) VH: EVQLVESGGGLVKPGGSLRLSCAASGFTFSNYAMSWVRQTPEKRLEWVATISNRGSYTYYPDSVKGRFTISRDNAKNSLYLQMSSLRSEDTALYYCARERPMDYWGQGTSVTVSS VL: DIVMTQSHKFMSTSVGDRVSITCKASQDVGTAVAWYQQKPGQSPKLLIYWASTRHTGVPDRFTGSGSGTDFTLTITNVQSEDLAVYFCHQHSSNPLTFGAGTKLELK", "M⁻¹ s⁻¹", 3490),
]

Next binder, kon to be filled in.
Form field: reported kon of VH7/Vκ6 (antibody, V domains shown, Redesigned variant; cloned into the appropriate expression vector (IgG4v1 and kappa were used in the first round), HEK EBNA supernatant) VH: EVQLVESGGGLVKPGGSLRLSCAASGFTFSNYAMSWVRQTPEKRLEWVATISNRGSYTYYPDSVKGRFTISRDNAKNSLYLQMNSLRAEDTALYYCARERPMDYWGQGTLVTVSS VL: DIVMTQSPSFLSASVGDRVTITCKASQDVGTAVAWYQQKPGKAPKLLIYWASTRHTGVPDRFTGSGSGTDFTLTISSLQSEDFAVYFCHQHSSNPLTFGQGTKLEIK
168000
